- TARGET_OF_ASSAY: ERR1 (also known as ERR-α or ERR-1) (Homo sapiens, UniProt P11474)
- Construct: the ^6His-tagged-ERR1 LBD
- Sequence (P11474 193-421 limits assumed): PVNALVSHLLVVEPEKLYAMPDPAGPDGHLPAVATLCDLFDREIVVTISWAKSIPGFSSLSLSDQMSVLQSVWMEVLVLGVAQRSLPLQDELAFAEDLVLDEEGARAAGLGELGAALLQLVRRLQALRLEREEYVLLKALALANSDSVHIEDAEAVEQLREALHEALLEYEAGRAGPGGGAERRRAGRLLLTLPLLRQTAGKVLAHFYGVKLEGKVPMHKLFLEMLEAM
- PROTOCOL_SUMMARY: TR-FRET assay: disruption of co-activator peptide binding to ERR1 LBD
- TEST_PARAMETERS: 6His-tagged ERR1 LBD 6 nM, GST-SRC-2 peptide 6 nM, 25° C., 4-18 hours; average of 3 independent experiments
ASSAY_READOUT: EC50 (nM)

1) COc1cc(/C=C2\SC(N3CCOCC3)=NC2=O)ccc1Oc1ccc(C#N)cc1C(F)(F)F    20

[A] COc1cc(/C=C2\SC(N3CCN(C(C)=O)CC3)=NC2=O)ccc1Oc1ccc(C#N)cc1C(F)(F)F
[B] COc1cc(/C=C2\SC(N3CCC(O)C3)=NC2=O)ccc1Oc1ccc(C#N)cc1C(F)(F)F (stereo not drawn)
[C] N#Cc1ccc(Oc2ccc(/C=C3\SC(NCCCN4CCNC(=O)C4)=NC3=O)cc2F)c(C(F)(F)F)c1
[D] N#Cc1ccc(Oc2ccc(/C=C3\SC(N4CCOCC4)=NC3=O)cc2F)c(C(F)(F)F)c1
[E] COc1cc(/C=C2\SC(N(C)CCN)=NC2=O)ccc1Oc1ccc(C#N)cc1C(F)(F)F
## Input Sort the compounds on EC50; start with the lowest figure. In plain terms: list the labels in the order you were asked to.
## Output A, B, C, D, E

[P] COc1cc(/C=C2\SC(NCCCN3CCCC3=O)=NC2=O)ccc1Oc1ccc(C#N)cc1C(F)(F)F
[Q] COC(=O)c1ccc(Oc2ccc(/C=C3\SC(N4CC(C(=O)O)C4)=NC3=O)cc2OC)c(C(F)(F)F)c1
[R] COc1cc(/C=C2\SC(NCCN3CCCCC3)=NC2=O)ccc1Oc1ccc(C#N)cc1C(F)(F)F
## Input Arrange the 3 entries by EC50 so the values rise. List the labels according to the requested ordering.
## Output Q, P, R
(Q: 2 nM, P: 9 nM, R: 18 nM)

[I] COc1cc(/C=C2\SC(N)=NC2=O)ccc1Oc1ccc(C#N)cc1C(F)(F)F
[II] COc1cc(/C=C2\SC(N(CCO)CCO)=NC2=O)ccc1Oc1ccc(C(F)(F)F)cc1C(F)(F)F
[III] COC(=O)CC1CCN(C2=NC(=O)/C(=C/c3ccc(Oc4ccc(C#N)cc4C(F)(F)F)c(OC)c3)S2)CC1
## Input Place the items in sequence of falling EC50. Reply with the labels, ordered as the question asks.
## Output II, III, I

src = patent US8580832B2
